The origin of these recorded values is PubChem BioAssay.

molecular target: Potassium voltage-gated channel subfamily KQT member 2 (Rattus norvegicus) (UniProt O88943); experiment: rat KCNQ2 channel potentiation, selectivity assay for KCNQ1 potentiator project, KCNQ2-CHO-K1 cells (AID 493009); details: FluxOR thallium flux fluorescence, at 10 µM; active compounds read high, scaled: buffer 0, activator control 100;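 further: assay conditions were tuned for KCNQ1 rather than KCNQ2 modulators; signal is max minus min fluorescence divided by baseline after thallium stimulus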
Sequence (O88943 whole entry, looked up): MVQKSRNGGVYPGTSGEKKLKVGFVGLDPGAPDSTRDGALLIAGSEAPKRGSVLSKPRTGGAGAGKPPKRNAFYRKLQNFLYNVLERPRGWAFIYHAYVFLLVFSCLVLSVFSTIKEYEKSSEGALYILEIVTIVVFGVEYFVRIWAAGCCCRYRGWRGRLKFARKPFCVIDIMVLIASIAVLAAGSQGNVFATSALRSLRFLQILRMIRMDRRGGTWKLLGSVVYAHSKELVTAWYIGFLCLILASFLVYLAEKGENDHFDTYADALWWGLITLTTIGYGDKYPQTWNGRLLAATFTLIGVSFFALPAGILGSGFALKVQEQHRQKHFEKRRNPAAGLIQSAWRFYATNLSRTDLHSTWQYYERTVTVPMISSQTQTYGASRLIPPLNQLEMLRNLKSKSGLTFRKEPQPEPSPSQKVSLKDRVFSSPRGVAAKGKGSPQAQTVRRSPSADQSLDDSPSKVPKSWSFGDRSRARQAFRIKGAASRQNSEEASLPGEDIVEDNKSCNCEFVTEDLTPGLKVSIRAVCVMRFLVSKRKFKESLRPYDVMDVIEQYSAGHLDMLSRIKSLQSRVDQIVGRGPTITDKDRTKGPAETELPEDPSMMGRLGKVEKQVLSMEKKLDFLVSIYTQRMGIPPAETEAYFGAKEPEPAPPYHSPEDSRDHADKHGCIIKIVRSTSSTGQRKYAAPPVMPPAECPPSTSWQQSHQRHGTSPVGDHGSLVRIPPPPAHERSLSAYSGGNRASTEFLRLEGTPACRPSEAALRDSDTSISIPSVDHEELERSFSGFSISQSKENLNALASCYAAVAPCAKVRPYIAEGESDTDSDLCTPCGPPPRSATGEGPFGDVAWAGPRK
Activity calls are given as the source filed them.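 How the source made its calls: active means mean duplicate potentiation above the buffer control mean plus 5 SD of buffer wells; inactive means the rest.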
Measurement type: potentiation

As a guide, the following entries are already answered.
CCc1ccc(/C=C/C(=O)c2cc(Br)ccc(=O)c2O)cc1 ... 296% (active)
COc1ccc(-n2nc(C(=O)NCC(=O)N3CCC(C(N)=O)CC3)c3ccccc3c2=O)cc1 ... inactive
Cc1cccc2sc(N(CCCN(C)C)C(=O)CCS(=O)(=O)c3ccccc3)nc12 ... inactive
COc1cccc(N=Nc2ccc(O)c3ncccc23)c1 ... 170% (active)

Here's the next entry for you.
So what does the record say about potentiation for C=CCNC(=S)Nc1sc2c(c1C(=O)OCC)CC(C)(CC)OC2 (stereo not given) ? 254% (active)

* * *

molecular target: Potassium voltage-gated channel subfamily KQT member 1 (Homo sapiens) (UniProt P51787); experiment: KCNQ1 potassium channel potentiators, confirmation, FluxOR thallium flux, CHO cells, duplicates (AID 493007); conditions: KCNQ1 cell line, FluxOR thallium flux fluorescence, at 10 µM, % of reference activator effect, buffer zero;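 on outcome: cells depolarized by a potassium plus thallium sulfate stimulus after compound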
Sequence (P51787 whole entry, looked up): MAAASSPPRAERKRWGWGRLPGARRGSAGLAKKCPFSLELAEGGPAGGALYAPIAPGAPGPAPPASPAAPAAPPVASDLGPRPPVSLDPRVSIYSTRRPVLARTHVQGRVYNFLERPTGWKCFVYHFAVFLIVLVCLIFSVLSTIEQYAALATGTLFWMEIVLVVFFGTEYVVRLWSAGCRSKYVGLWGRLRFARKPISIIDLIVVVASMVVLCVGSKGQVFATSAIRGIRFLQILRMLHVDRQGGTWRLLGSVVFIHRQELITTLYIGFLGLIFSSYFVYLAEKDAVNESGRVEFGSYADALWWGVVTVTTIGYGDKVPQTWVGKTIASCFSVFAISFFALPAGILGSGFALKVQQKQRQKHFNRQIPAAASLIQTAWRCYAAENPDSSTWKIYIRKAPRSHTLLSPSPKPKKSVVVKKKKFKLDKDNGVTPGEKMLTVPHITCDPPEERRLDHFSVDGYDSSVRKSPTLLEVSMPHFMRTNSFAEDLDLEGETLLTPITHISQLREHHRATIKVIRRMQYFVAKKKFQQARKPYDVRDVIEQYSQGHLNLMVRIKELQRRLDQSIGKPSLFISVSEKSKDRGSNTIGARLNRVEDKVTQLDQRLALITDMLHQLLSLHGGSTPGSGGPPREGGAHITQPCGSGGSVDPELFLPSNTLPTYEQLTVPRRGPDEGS
The source made the active and inactive calls.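 Rule for the calls: active = potentiation averaged over duplicate wells exceeding buffer-only control mean by more than 3 SD; inactive = the rest.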
Your reply should match one of these outcome classes. Y = active, N = inactive

COCCCN=C1NN=C(c2cc(C)n(-c3ccccc3F)c2C)CS1 ... N
Cc1nn(-c2ccccc2)c2nc(C(Cl)(Cl)Cl)[nH]c(=O)c12 ... N
CCC1(c2ccc(Cl)cc2)NC(=S)N(c2ccc(C)cc2)N1 (stereo unspecified) ... Y
O=C(NC(=S)Nc1ccccc1N1CCOCC1)c1ccc(-c2ccccc2F)o1 ... Y

Check the results log: what was the call for CC(C)c1nc2n[nH]c(N)c2c2c1CSC(C)(C)C2 ? Y

* * *

biological target: Short transient receptor potential channel 4 (Mus musculus) (UniProt Q9QUQ5); assay: inhibitors of mouse TRPC4 channel, confirmation, cell-based, Fluo4, HEK293 TRPC4beta/mu-opioid (AID 2636); conditions: DAMGO, Fluo4 calcium flux, at 10 µM
Sequence (Q9QUQ5 whole entry, looked up): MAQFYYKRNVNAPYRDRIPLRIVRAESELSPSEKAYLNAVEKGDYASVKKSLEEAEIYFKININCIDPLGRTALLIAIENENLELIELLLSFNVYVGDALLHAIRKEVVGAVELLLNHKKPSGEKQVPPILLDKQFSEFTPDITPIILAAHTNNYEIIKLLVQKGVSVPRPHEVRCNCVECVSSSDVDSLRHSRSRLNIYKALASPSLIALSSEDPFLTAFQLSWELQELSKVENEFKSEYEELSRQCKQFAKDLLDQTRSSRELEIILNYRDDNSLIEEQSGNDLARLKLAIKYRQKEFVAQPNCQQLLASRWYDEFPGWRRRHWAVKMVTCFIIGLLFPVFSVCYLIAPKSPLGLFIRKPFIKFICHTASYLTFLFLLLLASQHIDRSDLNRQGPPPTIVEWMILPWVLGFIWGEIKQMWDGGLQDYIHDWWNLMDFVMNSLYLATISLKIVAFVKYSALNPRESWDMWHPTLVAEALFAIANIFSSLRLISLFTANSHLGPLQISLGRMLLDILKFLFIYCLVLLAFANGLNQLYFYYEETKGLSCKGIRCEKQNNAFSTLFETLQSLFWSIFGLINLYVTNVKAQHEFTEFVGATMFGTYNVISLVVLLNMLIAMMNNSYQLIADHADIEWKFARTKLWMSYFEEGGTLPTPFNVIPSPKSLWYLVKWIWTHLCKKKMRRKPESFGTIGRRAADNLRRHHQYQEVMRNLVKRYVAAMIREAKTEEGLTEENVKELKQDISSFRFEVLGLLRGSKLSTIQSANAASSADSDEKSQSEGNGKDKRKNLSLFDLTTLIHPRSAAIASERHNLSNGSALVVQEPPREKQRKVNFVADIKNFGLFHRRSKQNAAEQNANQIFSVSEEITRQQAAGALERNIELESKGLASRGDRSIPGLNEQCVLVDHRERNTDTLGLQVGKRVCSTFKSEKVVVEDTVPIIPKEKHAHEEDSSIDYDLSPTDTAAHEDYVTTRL
Active and inactive are the calls of the source.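 The calls were made as follows: active = calcium signal cut by more than 3 SD below the full-agonist control yet still positive, in both repeats and the earlier primary screen; inactive = the rest.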
Your reply should match one of these outcome classes. y = active, n = inactive

Known results for molecules:
CC(C)(C)c1ccc(C(=O)NC(=S)NNC(=O)COc2ccccc2)cc1 ... y
Cn1c(-c2cccc3ccccc23)n[nH]c1=S ... n
CCN1CCN(c2c(Cl)cccc2NC(=O)c2ccc3nsnc3c2)CC1 ... n
COc1ccc(C(=O)NC(=S)NNC(=O)CCc2ccccc2)cc1 ... n

Now take the following molecule into account.
Check the results log: what was the call for COC(=O)C1=NN(C(=O)c2ccc(C)cc2)C(O)(c2ccc(Cl)cc2)C1 (configuration not stated) ? n

* * *

molecular target: Potassium voltage-gated channel subfamily KQT member 1 (Homo sapiens); assay: KCNQ1 potassium channel potentiators, confirmation, FluxOR thallium flux, CHO cells, duplicates (AID 493007); details: KCNQ1 cell line, FluxOR thallium flux fluorescence, at 10 µM, % of reference activator effect, buffer zero;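 on outcome: cells depolarized by a potassium plus thallium sulfate stimulus after compound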
The source made the active and inactive calls.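 How the source made its calls: active means potentiation averaged over duplicate wells exceeding buffer-only control mean by more than 3 SD; inactive means the rest.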
Your reply should match one of these outcome classes. label 1 = active, label 0 = inactive

Cc1ccccc1C(=O)Nc1nc(=S)ss1 ... label 1
Cc1ccc(C2=CSC3=NS(=O)(=O)CCN23)cc1 ... label 0
Cn1c(=O)n(CCc2ccccc2)c2ccccc21 ... label 0
Cc1cccc(OCC(=O)O/N=C(\N)c2ccc(Cl)cc2)c1 ... label 0
Cc1cccc(NC(=S)NC(=O)c2cc(-c3ccccc3)nc3ccccc23)c1 ... label 1

Check the results log: what was the call for COC(=O)C1=C(C)N(c2ccc(F)c(Cl)c2)C(=O)C1 ? label 0
